Data provenance is ChEMBL document CHEMBL5620408.

- assay.overview: Selectivity index, ratio of CC50 for human MT4 cells to EC50 for antiviral activity against HIV IIIB
1.0 means recorded selectivity ratio is 10000 or above; 0.0 means it is below 10000.

Asked: Dear colleague, could you confirm whether `Cc1cc(/C=C/C#N)cc(C)c1Oc1ccnc(Nc2ccc(N3CCN(S(C)(=O)=O)CC3)c(F)c2)n1` has selectivity ratio at or above 10000?
Given back: 0.0

Asked: Could you please find out whether `Cc1cc(/C=C/C#N)cc(C)c1Oc1ccnc(Nc2ccc(N3CCN(S(=O)(=O)N(C)C)CC3)c(F)c2)n1` has selectivity ratio that meets 10000 or exceeds it?
Given back: 0.0

Asked: Check the entry `Cc1cc(/C=C/C#N)cc(C)c1Oc1ccnc(Nc2ccc(C3CCN(S(=O)(=O)N(C)C)CC3)cc2)n1` : does selectivity ratio equal or exceed 10000?
Given back: 0.0

Asked: Identify whether the reported selectivity ratio of the following molecule is 10000 or greater: `Cc1cc(/C=C/C#N)cc(C)c1Oc1ccnc(Nc2ccc(N3CCN(S(=O)(=O)C4CC4)CC3)cc2)n1`
Given back: 1.0

Asked: # bool: selectivity ratio of `Cc1cc(C#N)cc(C)c1Oc1ccnc(Nc2ccc(N3CCN(S(C)(=O)=O)CC3)c(F)c2)n1` >= 10000
Given back: 0.0

Asked: Exam item: decide whether the reported selectivity ratio for `Cc1cc(/C=C/C#N)cc(C)c1Oc1ccnc(Nc2ccc(N3CCS(=O)(=O)CC3)c(F)c2)n1` is at least 10000.
Given back: 1.0

Asked: Is the recorded value of selectivity ratio equal to or greater than 10000 for this molecule? `CCS(=O)(=O)N1CCN(c2ccc(Nc3nccc(Oc4c(C)cc(C#N)cc4C)n3)cc2F)CC1`
Given back: 1.0

Asked: Hello, I need to know if `Cc1cc(/C=C/C#N)cc(C)c1Oc1ccnc(Nc2ccc(N3CCN(S(C)(=O)=O)CC3)cc2)n1` has measured selectivity ratio not below 10000. Thanks!
Given back: 0.0
